Tested on: HepG2 B6 cells (STAT-sPAP reporter)
TEST DETAILS: OSM-GST mutant driven sPAP production in HepG2 B6 assay
Type: cell-based, human
Overview of recorded Expt 2 EC50 for various molecules
Supply the numeric figure in µg/mL, leaving out any unit text.

MOLECULE: (7) L14A: OSM-GST fusion, alanine for Leu 14 (protein, left off: a dimerising Fc or GST; large carriers; small tags and cut ends) AAIGSCSKEYRVLAGQLQKQTDLMQDTSRLLDPYIRIQGLDVPKLREHCRERPGAFPSEETLRGLGRRGFLQTLNATLGCVLHRLADLEQRLPKAQDLERSGLNIEDLEKLQMARPNILGLRNNIYCMAQLLDNSDTAEPTKAGRGASQPPTPTPASDAFQRKLEGCRFLHGYHRFMHSVGRVFSKWGESPNRSRR
QUANTITY NAME: Expt 2 EC50
UNIT STRING: µg/mL
TEST VALUE: 0.0249

Now take the following molecule into account.
// query For the molecule (27) D26A: OSM-GST fusion, alanine for Asp 26 (protein, left off: a dimerising Fc or GST; large carriers; small tags and cut ends) AAIGSCSKEYRVLLGQLQKQTDLMQATSRLLDPYIRIQGLDVPKLREHCRERPGAFPSEETLRGLGRRGFLQTLNATLGCVLHRLADLEQRLPKAQDLERSGLNIEDLEKLQMARPNILGLRNNIYCMAQLLDNSDTAEPTKAGRGASQPPTPTPASDAFQRKLEGCRFLHGYHRFMHSVGRVFSKWGESPNRSRR , give its measured Expt 2 EC50 value.
// result 0.0255
